System: UACC-62 melanoma
Test: NCI-60 one-dose screen, 48 h
Conditions: 10 µM unless noted
About 83,000 compounds went through this panel and 20% of them were active in at least one assay; those are over-represented in the sample as a whole. The source made the active and inactive calls. How the source made its calls: active means growth percent below 10; inactive means the rest.
Form entry, call: pick from YES = active, NO = inactive

- COMPOUND: "COc1ccc(/C=N/Nc2cc(=O)[nH]c3ccc(C)cc23)cc1"
  CLASS LABEL: "NO"

// switching to the query compound
(Q) Record lookup: outcome of this test for COC(=O)[C@H](C)NC(=O)NC(=O)NC(=O)CI ?
(A) NO

###

Tested on: ACHN renal
Assay: NCI-60 one-dose screen, 48 h (100 = growth as untreated, 0 = no growth, -100 = all killed)
Conditions: 10 µM unless noted
Compounds without any hit were thinned out: in the full panel of roughly 83,000, 20% have a hit. Calls of active or inactive are those of the source. Rule for the calls: active = growth percent below 10; inactive = the rest.
OUTCOME MEASURE: growth

- COMPOUND: "COc1ccc(-c2nc3sc(-c4ccc(Cl)cc4)cn3n2)cc1"
  growth: "-74% (active)"
- COMPOUND: "Nc1ccc(Sc2ccc([N+](=O)[O-])c3nonc23)cc1"
  growth: "23% (inactive)"
- COMPOUND: "CC(=O)OC[C@H]1OC(Sc2sc(C(=O)c3ccc(Br)cc3)c(N)c2-c2nc3ccccc3s2)[C@H](OC(C)=O)[C@@H](OC(C)=O)[C@H]1OC(C)=O (stereo not given in full)"
  growth: "90.5% (inactive)"

(Q) I would be grateful if you could share the reported growth for N#Cc1cccc(NC(=O)c2cc(-c3ccc(F)cc3F)ccc2O)c1 .
(A) 7.33% (active)

(Q) I would be grateful if you could share the reported growth for CC/C=C\C[C@@H]1C/C=C2/C(=O)C=C[C@H]2C/C=C\CCCC(=O)O1 .
(A) -86.2% (active)

###

Test system: SF-268 CNS
Assay: NCI-60 one-dose screen, 48 h (100 = growth as untreated, 0 = no growth, -100 = all killed)
Details: 10 µM unless noted
Compounds without any hit were thinned out: in the full panel of roughly 83,000, 20% have a hit.
Friendly reminder: growth below 80% is true (1), at or above is false (0).

- MOLECULE: "N#Cc1ccc(NC(=O)c2sc3nc4c(cc3c2N)C(=O)CCC4)cc1"
  CLASS LABEL: "false (0)"
- MOLECULE: "NCCCNc1nc2ccccc2c2c(=O)c3cc(C(F)(F)F)ccc3sc12"
  CLASS LABEL: "true (1)"
- MOLECULE: "Nc1nc(-c2cccc3ccccc23)cc2ccccc12"
  CLASS LABEL: "true (1)"
- MOLECULE: "COc1cc(-c2nc3sccn3c2-c2ccnc(NCCCNS(=O)(=O)c3ccc(F)cc3)n2)ccc1F"
  CLASS LABEL: "true (1)"
- MOLECULE: "COc1cc(C2CC(c3ccc(SC)cc3)=NN2C(C)=O)cc(OC)c1OC (stereo not given)"
  CLASS LABEL: "true (1)"

(Q) Strictly below 80%: is that where growth of c1ccc2c(c1)Nc1ccncc1S2 sits?
(A) false (0)

(Q) Strictly below 80%: is that where growth of Cc1cccc2c3c(sc12)C(c1ccc(Cl)cc1)C(C#N)=C(/N=C/c1ccc(Cl)cc1)O3 (stereo not given) sits?
(A) true (1)

(Q) Strictly below 80%: is that where growth of Nc1ccccc1-c1cc2c(c3c1[nH]c1ccccc13)CCCCC2 sits?
(A) false (0)

###

System: SW-620 colon
Test: NCI-60 one-dose screen, 48 h
Settings: 10 µM unless noted
About 83,000 compounds went through this panel and 20% of them were active in at least one assay; those are over-represented in the sample as a whole. Active and inactive are the calls of the source. How the source made its calls: active means growth percent below 10; inactive means the rest.
Form entry, call: pick from active, inactive

- MOLECULE: "Cc1ccc(-c2nc3c(c(-c4ccccc4)nn3-c3ccccc3)c(-c3ccc(O)cc3)c2C#N)cc1"
  CLASS LABEL: "inactive"
- MOLECULE: "NCCOc1ncccc1/C=C1\\C2C=CC=CC2C2C=CC(F)=CC12 (stereo not drawn)"
  CLASS LABEL: "inactive"

// switching to the query molecule
(Q) Record lookup: outcome of this test for CCCCn1c(=O)c(-c2cc(-c3ccc(Cl)cc3)nc(-c3ccc(Cl)cc3)c2)cc2cc(C)ccc21 ?
(A) inactive

###

System: SF-539 CNS
Assay: NCI-60 one-dose screen, 48 h
Details: 10 µM unless noted
The panel holds about 83,000 compounds, 20% with a hit somewhere; the sample as a whole holds those more often. Calls of active or inactive are those of the source. How the source made its calls: active means growth percent below 10; inactive means the rest.
Form entry, call: pick from 1 (yes) for active, 0 (no) for inactive

Please review the following examples before continuing.
- COMPOUND: "CCOC(=O)c1cn2ncnc(Oc3ccc(NC(=O)NCCN(C)C)c(Cl)c3)c2c1C"
  CLASS LABEL: "0 (no)"
- COMPOUND: "CCc1ccc(Oc2c(-c3ccc(OCCc4cccc(C(F)(F)F)c4)cc3O)n[nH]c2C(F)(F)F)cc1"
  CLASS LABEL: "0 (no)"
- COMPOUND: "CC1CN(C2CCCCC2)C(=S)N(c2ccccc2)C1=O (stereo not drawn)"
  CLASS LABEL: "0 (no)"

// switching to the query compound
(Q) Record lookup: outcome of this test for CCOC(=O)C1=C(N)Oc2c(sc3c(CC)cccc23)C1c1ccc(F)cc1 (stereo not drawn) ?
(A) 0 (no)

###

System: MCF7 breast
Experiment: NCI-60 one-dose screen, 48 h (100 = growth as untreated, 0 = no growth, -100 = all killed)
Settings: 10 µM unless noted
About 83,000 compounds went through this panel and 20% of them were active in at least one assay; those are over-represented in the sample as a whole.
Friendly reminder: growth below 20% is Met, at or above is Not met.

Please review the following examples before continuing.
- MOLECULE: "O=c1[nH]c2c(ccc3cnccc32)c2c1CCC2"
  CLASS LABEL: "Met"
- MOLECULE: "COc1ccc(N2C(=O)C(Oc3ccccc3)C2c2ccc(C)cc2)cc1 (stereo not given)"
  CLASS LABEL: "Not met"
- MOLECULE: "COc1nc2ccc(C)cc2cc1-c1nc2c(cnn2-c2ccc(Br)cc2)c(=O)[nH]1"
  CLASS LABEL: "Not met"

(Q) Strictly below 20%: is that where growth of CCOC(=O)C1=C(N)Oc2c(sc3c(C)cccc23)C1c1ccc(OC)cc1 (stereo not given) sits?
(A) Met

(Q) Strictly below 20%: is that where growth of OC(COc1ccccc1)CN1CCN(c2ccc(Cl)cc2)CC1 (stereo not given) sits?
(A) Not met

(Q) Strictly below 20%: is that where growth of O=C1NC(=O)C(c2ccccc2)(c2ccccc2)N1Cc1cn(-c2c3ccccc3nc3ccccc23)nn1 sits?
(A) Not met

(Q) Strictly below 20%: is that where growth of CSc1ncccc1C(=O)OCC(=O)Nc1oc(C)c2c(C)n[nH]c(=O)c12 sits?
(A) Not met

(Q) Strictly below 20%: is that where growth of Brc1c[n+](Cc2ccc3ccccc3c2)cn1Cc1ccc2ccccc2c1 sits?
(A) Met

(Q) Strictly below 20%: is that where growth of CC1Cc2c(ncn3c(-c4ccc(F)cc4)nnc23)N(C)c2ccccc21 (stereo not given) sits?
(A) Not met

(Q) Strictly below 20%: is that where growth of COc1ccn2c(C(C)=O)cc(C(=O)c3ccc4c(c3)Sc3ccccc3N4)c2c1 sits?
(A) Not met

(Q) Strictly below 20%: is that where growth of CN(C)CCNc1nc2ccccc2c2c(=O)c3cc(F)ccc3sc12 sits?
(A) Not met

(Q) Strictly below 20%: is that where growth of Cc1ccc(-c2nc(N3CCN(CC(=O)Nc4ccc(Cl)c(C(F)(F)F)c4)CC3)c3ccccc3n2)cc1 sits?
(A) Not met

###

System: SK-MEL-2 melanoma
Experiment: NCI-60 one-dose screen, 48 h (100 = growth as untreated, 0 = no growth, -100 = all killed)
Settings: 10 µM unless noted
The panel holds about 83,000 compounds, 20% with a hit somewhere; the sample as a whole holds those more often.
OUTCOME MEASURE: growth (%)
I only need the number, in %, no unit after it.

- COMPOUND: "Cc1cccc2c1S/C(=C/c1ccc([N+](=O)[O-])cc1)C2=O"
  OUTCOME MEASURE: "growth"
  RESULT NUMBER: 103
- COMPOUND: "O=c1c2cc(F)ccc2sc2c(NCCCNCCO)nc3ccccc3c12"
  OUTCOME MEASURE: "growth"
  RESULT NUMBER: 90.9
- COMPOUND: "CS(=O)(=O)N(c1cc(-c2ccc3ncnc(Nc4ccc(F)c(Cl)c4)c3c2)cnc1Cl)S(C)(=O)=O"
  OUTCOME MEASURE: "growth"
  RESULT NUMBER: 27.3

(Q) I would be grateful if you could share the reported growth for Cc1ncc(C(=O)Nc2ccc(CN3CCN(C)CC3)c(C(F)(F)F)c2)cc1C#Cc1ccc(N)nc1 .
(A) -55

(Q) I would be grateful if you could share the reported growth for Cc1ccc(S(=O)(=O)Oc2ccc(NC(=O)c3ccc(Cl)cc3)cc2)cc1 .
(A) 99.8

(Q) I would be grateful if you could share the reported growth for C#C[C@]1(O)CC[C@H]2[C@@H]3CC=C4c5sc(Nc6cc(F)ccc6F)nc5CC[C@]4(C)[C@H]3CC[C@@]21C .
(A) -6.68

(Q) I would be grateful if you could share the reported growth for Cc1nc(/N=C(\N)NC(=O)Nc2ccccc2Cl)sc1C .
(A) 45.6

(Q) I would be grateful if you could share the reported growth for COc1ccc(-c2csc(NC(=O)N3CCN(c4cc5c(cc4F)c(=O)c(C(=O)O)cn5C4CC4)CC3)n2)cc1 .
(A) -20.4

(Q) I would be grateful if you could share the reported growth for COc1ccc2c(c1)C(C)Cc1c(ncnc1-n1c(C)nc3ccccc31)N2C (centres undefined) .
(A) 33.9
